experiment: Cytotoxicity against HFF-1 cells measured after 72 hrs by MTT assay; assay type: toxicity, cell-based; settings: human
parameter: IC50 at 72 h (µM)

>>> measured_number("CCN(CC)CCCC(C)Nc1cnc(C(=O)Nc2ccc(Cl)c3cccnc23)cn1 (configuration not stated)")
8

----------
assay: Metabolic stability in mouse liver microsomes assessed as half life at 10 uM measured upto 60 mins in presence of NADPH by LC-MS/MS analysis; assay type: ADME, Microsome; conditions: 1 h
The reader will find reported log10(t1/2) values listed item by item below.
parameter: log10(t1/2) (log10 of the value in min)

>>> measured_number("CCN(CC)CCCC(C)Nc1nc(C(=O)Nc2cc(F)cc3cccnc23)cs1 (configuration not stated)")
0.52
>>> measured_number("CCN(CC)CCCC(C)Nc1cnc(C(=O)Nc2cccc3ccc(OC)nc23)cn1 (configuration not stated)")
1.73
>>> measured_number("CCN(CC)CCCC(C)Nc1cnc(C(=O)Nc2cc(F)cc3cccnc23)cn1 (configuration not stated)")
1.66
>>> measured_number("CCN(CC)CCCC(C)Nc1ccc(S(=O)(=O)Nc2cc(F)cc3cccnc23)nc1 (configuration not stated)")
1.18
>>> measured_number("Cc1cc(NC(=O)c2cnc(S(=O)(=O)NCCN(C)C)cn2)c2ncccc2c1")
0.78
>>> measured_number("CCN(CC)CCCC(C)Nc1cnc(C(=O)Nc2ccc(Cl)c3cccnc23)cn1 (configuration not stated)")
1.78
>>> measured_number("CCN(CC)CCCC(C)Nc1cnc(C(=O)Nc2cc(C)cc3cccnc23)cn1 (configuration not stated)")
1.32
